System: complement
Assay: Inhibition of complement mediated hemolysis
Assay type: cell-based
Conditions: 1 × 10^-7
Quick rule for you: Inhibition of complement mediated hemolysis (%) under 90% gets met, anything else gets not met.

Observe how each entry below is paired with its result.
N=C(N)NCc1ccc(C(=O)Oc2ccc3cc(C(=N)N)ccc3c2)o1 [Compound No. 1]: met
N=C(N)c1ccc2cc(OC(=O)c3ccc(CNC(=O)CCNC(=O)OCc4ccccc4)o3)ccc2c1 [compound 20]: met
N=C(N)c1ccc2cc(OC(=O)c3ccc(CN4CCN(Cc5ccccc5)CC4)o3)ccc2c1 [compound 26]: not met
CN(C)Cc1ccc(C(=O)Oc2ccc3cc(C(=N)N)ccc3c2)o1 [compound 23]: met
N=C(N)c1ccc2cc(OC(=O)c3ccc(CNC(=O)C(N)CCCCN)o3)ccc2c1 (centres unmarked) [compound 35]: met
N=C(N)c1ccc2cc(OC(=O)c3ccc(CNC(=O)OCc4ccccc4)o3)ccc2c1 [compound 19]: not met

q: Please let me know if N=C(N)c1ccc2cc(OC(=O)c3ccc(CNC4=NCCN4)o3)ccc2c1 [compound 11] shows Inhibition of complement mediated hemolysis (%) below 90%.
a: met

q: Again, but for N=C(N)c1ccc2cc(OC(=O)c3ccc(CNC(=O)CCN)o3)ccc2c1 [compound 34]
a: met

q: Again, but for CCNC(=NC)NCc1ccc(C(=O)Oc2ccc3cc(C(=N)N)ccc3c2)o1 [compound 7]
a: not met

q: Again, but for N=C(N)c1ccc2cc(OC(=O)c3ccc(NC(=O)C4CCC(CN)CC4)o3)ccc2c1 (centres unmarked) [compound 37]
a: met

q: Again, but for N=C(N)c1ccc2cc(OC(=O)c3ccc(CNC(=O)c4cnc5ccccc5c4)o3)ccc2c1 [compound 17]
a: not met

q: Again, but for N=C(N)c1ccc2cc(OC(=O)c3ccc(CNC(=O)c4cccnc4)o3)ccc2c1 [compound 16]
a: not met

q: Again, but for N=C(N)c1ccc2cc(OC(=O)c3ccc(CNC(=O)CCOCc4ccccc4)o3)ccc2c1 [compound 18]
a: not met

q: Again, but for N=C(N)Nc1ccc(C(=O)Oc2ccc3cc(C(=N)N)ccc3c2)o1 [Compound No. 3]
a: not met

q: Again, but for N=C(N)c1ccc2cc(OC(=O)c3ccc(CN4CCOCC4)o3)ccc2c1 [compound 25]
a: met

q: Again, but for CN(C(=N)N)c1ccc(C(=O)Oc2ccc3cc(C(=N)N)ccc3c2)o1 [compound 4]
a: met

----------
Target: Thrombin (Homo sapiens, UniProt P00734)
Experiment: biochemical
Conditions: molar concentration inhibiting 50% of TAME hydrolysis; read-out: ID50 thrombin
Kindly state log10(IC50) for each of the entries shown.
log10 IC50, nM

Worked examples follow.
N=C(N)c1ccc2cc(OC(=O)c3ccc(NC4=NCCN4)o3)ccc2c1 [compound 10]: 2.30
N=C(N)c1ccc2cc(OC(=O)c3ccc(CNC(=O)CCOCc4ccccc4)o3)ccc2c1 [compound 18]: 2.70

Quick one: give me log10(IC50) for each item below, same order please.
1. N=C(N)NCCc1ccc(C(=O)Oc2ccc3cc(C(=N)N)ccc3c2)o1 [compound 9]
2. N=C(N)c1ccc2cc(OC(=O)c3ccc(CNC(=O)c4cccnc4)o3)ccc2c1 [compound 16]
3. CN(C)Cc1ccc(C(=O)Oc2ccc3cc(C(=N)N)ccc3c2)o1 [compound 23]
4. N=C(N)c1ccc2cc(OC(=O)c3ccc(CNC(=O)c4cnc5ccccc5c4)o3)ccc2c1 [compound 17]
5. N=C(N)c1ccc2cc(OC(=O)c3ccc(CNC(=O)C(N)COCc4ccccc4)o3)ccc2c1 (stereo not shown) [compound 36]

a:
1. 3.00
2. 2.60
3. 3.60
4. 2.85
5. 2.48

----------
Kindly state pIC50 for each of the entries shown.
Biological target: C1r (Homo sapiens)
Test: biochemical
Conditions: molar concentration inhibiting 50% of AAME hydrolysis; read-out: ID50 C1r (Anti-C1 activity)
One number for each entry, as −log10 of the molar value.

Worked examples follow.
N=C(N)c1ccc2cc(OC(=O)c3ccc(CN4CCOCC4)o3)ccc2c1 [compound 25]: 6.00
CN(C)Cc1ccc(C(=O)Oc2ccc3cc(C(=N)N)ccc3c2)o1 [compound 23]: 5.52

Quick one: give me pIC50 for each item below, same order please.
1. CCNC(=NC)NCc1ccc(C(=O)Oc2ccc3cc(C(=N)N)ccc3c2)o1 [compound 7]
2. N=C(N)NCc1ccc(C(=O)Oc2ccc3cc(C(=N)N)ccc3c2)o1 [Compound No. 1]

a:
6.00
5.70

Quick one: give me pIC50 for each item below, same order please.
1. N=C(N)c1ccc2cc(OC(=O)c3ccc(CNC(=O)OCc4ccccc4)o3)ccc2c1 [compound 19]
2. N=C(N)c1ccc2cc(OC(=O)c3ccc(CN)s3)ccc2c1 [Compound No. 31]
3. N=C(N)c1ccc2cc(OC(=O)c3ccc(CNC(=O)C(N)COCc4ccccc4)o3)ccc2c1 (stereo not drawn) [compound 36]
4. N=C(N)c1ccc2cc(OC(=O)c3ccc(CNC(=O)CCN)o3)ccc2c1 [compound 34]
5. CNC(=N)Nc1ccc(C(=O)Oc2ccc3cc(C(=N)N)ccc3c2)o1 [compound 5]
6. N=C(N)c1ccc2cc(OC(=O)c3ccc(CNC(=O)CCOCc4ccccc4)o3)ccc2c1 [compound 18]
7. CN(C)CC(=O)NCc1ccc(C(=O)Oc2ccc3cc(C(=N)N)ccc3c2)o1 [compound 14]

a:
6.70
6.70
6.30
6.30
6.00
6.52
6.15

----------
Biological target: C1r (Homo sapiens, UniProt P00736)
Sequence (P00736 464-705 limits assumed): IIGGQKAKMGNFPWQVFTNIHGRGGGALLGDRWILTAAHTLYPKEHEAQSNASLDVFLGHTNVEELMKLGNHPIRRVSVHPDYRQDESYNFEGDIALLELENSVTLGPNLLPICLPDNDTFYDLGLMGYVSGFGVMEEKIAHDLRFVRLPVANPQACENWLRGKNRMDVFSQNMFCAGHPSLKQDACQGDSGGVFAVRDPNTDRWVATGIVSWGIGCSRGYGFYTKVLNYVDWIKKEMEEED
Sequence (P00736 18-463 partner limits assumed): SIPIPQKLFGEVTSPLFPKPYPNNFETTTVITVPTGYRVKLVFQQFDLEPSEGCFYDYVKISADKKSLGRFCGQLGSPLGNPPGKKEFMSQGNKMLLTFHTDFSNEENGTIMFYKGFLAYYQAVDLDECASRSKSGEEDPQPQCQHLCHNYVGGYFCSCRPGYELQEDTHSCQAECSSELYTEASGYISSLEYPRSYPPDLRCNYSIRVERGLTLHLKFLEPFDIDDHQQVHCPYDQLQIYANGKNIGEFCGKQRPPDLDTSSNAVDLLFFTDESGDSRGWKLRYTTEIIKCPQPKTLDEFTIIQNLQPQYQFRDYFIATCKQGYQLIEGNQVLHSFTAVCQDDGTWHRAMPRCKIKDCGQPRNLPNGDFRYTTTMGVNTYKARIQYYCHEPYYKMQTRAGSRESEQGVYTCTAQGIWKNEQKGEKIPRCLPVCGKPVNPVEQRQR
Test: biochemical
Details: molar concentration inhibiting 50% of AAME hydrolysis; read-out: ID50 C1r (Anti-C1 activity)
Endpoint name: log10(IC50) (log10 of the value in nM)
log10 IC50, nM

Worked examples follow.
N=C(N)c1ccc2cc(OC(=O)c3ccc(CNC4=NCCN4)o3)ccc2c1 [compound 11]: 2.70
N=C(N)NCCc1ccc(C(=O)Oc2ccc3cc(C(=N)N)ccc3c2)o1 [compound 9]: 2.60
N=C(N)c1ccc2cc(OC(=O)c3ccc(CNC(=O)C4CCC(CN)CC4)o3)ccc2c1 (stereo not shown) [compound 38]: 2.48
N=C(N)c1ccc2cc(OC(=O)c3ccc(CCNC(=O)C4CCC(CN)CC4)o3)ccc2c1 (stereo not shown) [compound 39]: 2.60
CNC(=N)NCc1ccc(C(=O)Oc2ccc3cc(C(=N)N)ccc3c2)o1 [compound 6]: 2.70
CN=C(NC)NCc1ccc(C(=O)Oc2ccc3cc(C(=N)N)ccc3c2)o1 [Compound No. 2]: 3.00

Quick one: give me log10(IC50) for each item below, same order please.
1. N=C(N)c1ccc2cc(OC(=O)c3ccc(NC(=O)C4CCC(CN)CC4)o3)ccc2c1 (stereo not shown) [compound 37]
2. N=C(N)c1ccc2cc(OC(=O)c3ccc(CNC(=O)C(N)CCCCN)o3)ccc2c1 (stereo not shown) [compound 35]
3. N=C(N)NCc1ccc(C(=O)Oc2ccc3cc(C(=N)N)ccc3c2)s1 [compound 28]

a:
[3.48, 3.30, 3.30]

q: What does the record list as log10(IC50) for N=C(N)c1ccc2cc(OC(=O)c3ccc(NC4=NCCN4)o3)ccc2c1 [compound 10] ?
a: 3.70

----------
Please consider the recorded pIC50 for Plasmin (Homo sapiens) in what follows.
Give bare numbers, as −log10 of the molar value.

Worked examples follow.
N=C(N)c1ccc2cc(OC(=O)c3ccc(CNC(=O)CCOCc4ccccc4)o3)ccc2c1: 6.30
N=C(N)c1ccc2cc(OC(=O)c3ccc(CNC(=O)CCN)o3)ccc2c1: 5.70
CNC(=N)Nc1ccc(C(=O)Oc2ccc3cc(C(=N)N)ccc3c2)o1: 6.30
N=C(N)c1ccc2cc(OC(=O)c3ccc(CNC(=O)c4cnc5ccccc5c4)o3)ccc2c1: 5.70

Quick one: give me pIC50 for each item below, same order please.
1. N=C(N)c1ccc2cc(OC(=O)c3ccc(CNC(=O)C4CCC(CN)CC4)o3)ccc2c1 (centres unmarked)
2. N=C(N)c1ccc2cc(OC(=O)c3ccc(CNC4=NCCN4)o3)ccc2c1
3. N=C(N)Nc1ccc(C(=O)NCc2ccc(C(=O)Oc3ccc4cc(C(=N)N)ccc4c3)o2)cc1
4. N=C(N)c1ccc2cc(OC(=O)c3ccc(CCNC(=O)C4CCC(CN)CC4)o3)ccc2c1 (centres unmarked)

a:
1: 6.40; 2: 5.70; 3: 6.52; 4: 6.40

Quick one: give me pIC50 for each item below, same order please.
1. N=C(N)c1ccc2cc(OC(=O)c3ccc(CNC(=O)C(N)CCCCN)o3)ccc2c1 (centres unmarked)
2. CCNC(=NC)NCc1ccc(C(=O)Oc2ccc3cc(C(=N)N)ccc3c2)o1
3. N=C(N)c1ccc2cc(OC(=O)c3ccc(NC4=NCCN4)o3)ccc2c1

a:
1: 5.52; 2: 6.15; 3: 5.52

Quick one: give me pIC50 for each item below, same order please.
1. N=C(N)c1ccc2cc(OC(=O)c3ccc(NC(=O)C4CCC(CN)CC4)o3)ccc2c1 (centres unmarked)
2. CN=C(NC)NCc1ccc(C(=O)Oc2ccc3cc(C(=N)N)ccc3c2)o1
3. N=C(N)Nc1ccc(C(=O)Oc2ccc3cc(C(=N)N)ccc3c2)o1
4. N=C(N)c1ccc2cc(OC(=O)c3ccc(CNC(=O)OCc4ccccc4)o3)ccc2c1
5. CNC(=N)NCc1ccc(C(=O)Oc2ccc3cc(C(=N)N)ccc3c2)o1
6. N=C(N)c1ccc2cc(OC(=O)c3ccc(CNC(=O)C(N)COCc4ccccc4)o3)ccc2c1 (centres unmarked)

a:
1. 6.40
2. 6.10
3. 6.30
4. 6.52
5. 5.52
6. 6.22
